Biological target: PfGrp170 (Plasmodium falciparum)
Sequence (C0H5H0 20-932): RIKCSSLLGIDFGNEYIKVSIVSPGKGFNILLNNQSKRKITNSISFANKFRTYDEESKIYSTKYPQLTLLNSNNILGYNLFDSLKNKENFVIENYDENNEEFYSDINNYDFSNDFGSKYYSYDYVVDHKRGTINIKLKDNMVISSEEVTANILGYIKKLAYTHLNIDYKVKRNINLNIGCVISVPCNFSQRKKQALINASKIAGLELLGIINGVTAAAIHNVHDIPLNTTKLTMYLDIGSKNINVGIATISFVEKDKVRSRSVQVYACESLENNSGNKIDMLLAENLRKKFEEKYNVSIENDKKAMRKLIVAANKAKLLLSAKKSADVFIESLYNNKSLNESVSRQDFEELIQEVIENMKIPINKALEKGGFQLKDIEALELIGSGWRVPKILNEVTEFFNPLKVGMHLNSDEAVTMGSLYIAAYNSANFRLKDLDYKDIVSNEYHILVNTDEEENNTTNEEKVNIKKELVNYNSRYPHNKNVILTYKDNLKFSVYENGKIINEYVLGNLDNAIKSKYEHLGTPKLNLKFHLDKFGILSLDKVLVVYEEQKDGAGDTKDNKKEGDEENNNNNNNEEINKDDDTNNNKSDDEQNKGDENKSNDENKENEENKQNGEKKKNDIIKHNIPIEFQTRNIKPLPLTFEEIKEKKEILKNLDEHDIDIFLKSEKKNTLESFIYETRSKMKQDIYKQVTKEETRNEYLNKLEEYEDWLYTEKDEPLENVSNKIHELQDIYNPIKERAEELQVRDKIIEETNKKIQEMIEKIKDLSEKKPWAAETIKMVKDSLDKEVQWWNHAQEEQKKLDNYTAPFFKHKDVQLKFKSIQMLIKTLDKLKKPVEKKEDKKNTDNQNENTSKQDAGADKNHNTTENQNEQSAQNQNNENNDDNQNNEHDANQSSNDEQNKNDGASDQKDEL
Test Readout: Kd (nM)
// return numeric value only (unit: nM, not printed)

Q) Notebook: pull reported Kd for PfGrp170 (Plasmodium falciparum), entry Nc1ncnc2c1ncn2[C@@H]1O[C@H](COP(=O)(O)OP(=O)(O)OP(=O)(O)O)[C@@H](O)[C@H]1O
A) 143
